Data provenance: the supplement of paper PMC10567573

B1: SCNN1D (parent)
chain: RRPSPVLRHLELLDEFARENIDSL

variants of: B1; experiment: protein stability index of a GFP-peptide fusion (GPS, HEK-293T) (PSI 1-6); higher = more stable; conditions: c terminus: a fixed tail appended;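 also: lentivirally expressed fusions sorted by FACS into six bins by GFP to DsRed ratio, PSI derived from sequencing read proportions per bin multiplied by bin number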
protein stability index overview

VARIANT_KEY | protein stability index
S23Y | 2.46
S23V | 2.45
P5M | 2.5
R1I | 2.1
F16A | 2.61
R1T | 2.38
I21E | 3.27
L13A | 3.98
E11P | 3.75
H9Y | 1.83
E15P | 3.02
N20I | 1.74
H9C | 2.48
D22G | 2.41
D14I | 1.78
R8V | 2.99
F16V | 3.95
P3H | 1.96
I21S | 3.85
P5F | 2.19
E15G | 3.34
D14G | 2.83
